Documented inhibition across a set of compounds
- study_system: Receptor-type tyrosine-protein kinase FLT3 (Homo sapiens) (UniProt P36888)
- Sequence (P36888 whole entry): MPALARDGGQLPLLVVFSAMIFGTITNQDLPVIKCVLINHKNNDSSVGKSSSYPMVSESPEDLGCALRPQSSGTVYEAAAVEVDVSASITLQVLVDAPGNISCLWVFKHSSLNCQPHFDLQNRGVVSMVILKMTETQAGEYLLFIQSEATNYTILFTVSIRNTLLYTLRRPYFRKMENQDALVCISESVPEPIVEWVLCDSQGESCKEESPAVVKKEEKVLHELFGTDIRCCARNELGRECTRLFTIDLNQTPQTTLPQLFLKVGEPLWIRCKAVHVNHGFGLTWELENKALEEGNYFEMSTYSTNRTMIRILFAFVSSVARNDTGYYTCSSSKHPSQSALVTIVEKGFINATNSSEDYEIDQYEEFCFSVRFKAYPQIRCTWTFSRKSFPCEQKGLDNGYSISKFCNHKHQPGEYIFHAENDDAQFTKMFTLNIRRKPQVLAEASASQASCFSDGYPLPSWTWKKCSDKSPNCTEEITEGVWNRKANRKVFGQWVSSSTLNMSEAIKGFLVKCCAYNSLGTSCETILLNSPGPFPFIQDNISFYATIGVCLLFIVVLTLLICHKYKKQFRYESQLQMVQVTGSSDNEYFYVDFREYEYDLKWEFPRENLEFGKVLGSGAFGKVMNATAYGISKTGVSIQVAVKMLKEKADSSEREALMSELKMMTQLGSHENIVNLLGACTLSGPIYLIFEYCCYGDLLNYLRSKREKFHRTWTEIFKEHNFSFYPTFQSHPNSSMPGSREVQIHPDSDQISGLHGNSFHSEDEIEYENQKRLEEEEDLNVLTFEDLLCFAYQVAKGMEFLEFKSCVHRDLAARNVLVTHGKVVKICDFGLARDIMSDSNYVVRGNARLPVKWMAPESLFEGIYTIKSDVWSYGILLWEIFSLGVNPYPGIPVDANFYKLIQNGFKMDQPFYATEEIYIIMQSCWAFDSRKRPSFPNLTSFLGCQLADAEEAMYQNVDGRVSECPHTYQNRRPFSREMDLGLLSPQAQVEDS
- protocol_text: Inhibition of FLT3 (unknown origin) using EAIYAAPFAKKK substrate at 1 uM
quantity_kind: inhibition (%)

structure_smiles_string	measure_unit	observed_value
COc1ccc(C(=O)NC(=O)Nc2ccc3c(c2)NC(=O)/C3=C/c2cccc(C(=O)O)c2)cc1	%	21
COc1ccc(C(=O)NC(=O)Nc2ccc3c(c2)NC(=O)/C3=C/c2ccc(Cl)cc2)cc1	%	6
COc1ccc(C(=O)NC(=O)Nc2ccc3c(c2)NC(=O)/C3=C/c2ccncc2)cc1	%	4

###

- Tested on: MV4-11
- protocol_text: Cytotoxicity against human MV4-11 cells assessed as cell viability after 48 hrs by MTT assay
- Format: functional, cell-based
- run_parameters: Homo sapiens, MV4-11, 48 h
Documented IC50 across a set of molecules

structure_smiles_string	IC50
COc1ccc(C(=O)NC(=O)Nc2ccc3c(c2)NC(=O)/C3=C/c2ccc(Cl)c(Cl)c2)cc1	> 500 nM
COc1ccc(C(=O)NC(=O)Nc2ccc3c(c2)NC(=O)/C3=C\c2[nH]c(C)c(-c3ccccc3)c2C)cc1	> 500 nM
COc1ccc(C(=O)NC(=O)Nc2ccc3c(c2)NC(=O)/C3=C/c2ccc(Cl)cc2)cc1	> 500 nM
